- measured.target: human IP6K1 (Homo sapiens, UniProt Q92551)
- Construct: human IP6K1 (1-441) gene; GST; made in house; host or cells: Sf-9 insect cells
- Sequence (Q92551 whole entry): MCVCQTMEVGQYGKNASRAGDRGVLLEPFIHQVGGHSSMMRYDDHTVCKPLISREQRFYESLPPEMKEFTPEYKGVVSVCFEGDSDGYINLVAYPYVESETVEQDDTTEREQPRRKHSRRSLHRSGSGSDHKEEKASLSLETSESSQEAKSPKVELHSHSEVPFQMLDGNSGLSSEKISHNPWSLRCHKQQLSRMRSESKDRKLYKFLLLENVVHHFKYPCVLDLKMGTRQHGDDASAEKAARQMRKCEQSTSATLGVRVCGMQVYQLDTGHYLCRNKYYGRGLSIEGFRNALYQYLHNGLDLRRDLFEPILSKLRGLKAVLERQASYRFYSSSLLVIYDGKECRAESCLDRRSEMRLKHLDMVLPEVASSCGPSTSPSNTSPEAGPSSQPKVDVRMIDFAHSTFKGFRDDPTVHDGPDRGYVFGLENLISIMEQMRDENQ
- assay.explanation: IP6K enzyme inhibitory assay (ADP-Glo Kinase Assay), human IP6K1
- Type: biochemical
- run.conditions: compound concentration 0.1 μM; read-out: ADP-Glo method inhibitory rate (%) human IP6K1
endpoint: inhibition at 0.1 µM (%)

>>> data_value("N#Cc1cc(Cl)ccc1O[C@H]1CC[C@@]2(CC1)C(=O)Nc1ccc(C(=O)O)cc12")
100
>>> data_value("O=C(O)c1ccc2c(n1)[C@]1(CC[C@H](Oc3ccc(Cl)cc3Cl)CC1)C(=O)N2")
104
>>> data_value("Cc1ccc(O[C@H]2CC[C@@]3(CC2)C(=O)Nc2ccc(C(=O)O)cc23)c(C)n1")
82
>>> data_value("O=C(O)c1ccc2c(c1)[C@]1(CC[C@@H](Oc3ncc(Cl)cc3C(F)(F)F)CC1)C(=O)N2")
95
>>> data_value("O=C(O)c1ccc2c(c1)[C@]1(CC[C@@H](Oc3cc(F)cc(C(F)(F)F)c3)CC1)C(=O)N2")
81
>>> data_value("N#Cc1cccc(O[C@H]2CC[C@@]3(CC2)C(=O)Nc2ccc(C(=O)O)cc23)c1F")
87
>>> data_value("O=C(O)c1ccc2c(c1)[C@]1(CC[C@@H](Oc3ccc(Cl)cc3)CC1)C(=O)N2")
99
>>> data_value("O=C(O)c1ccc2c(c1)[C@]1(CC[C@@H](Oc3ccc(C(F)(F)F)cc3)CC1)C(=O)N2")
98
>>> data_value("O=C(O)c1ccc2c(c1)[C@]1(CC[C@@H](Oc3cc(F)cc(Cl)c3)CC1)C(=O)N2")
80
>>> data_value("Cc1cc(O[C@H]2CC[C@@]3(CC2)C(=O)Nc2ccc(C(=O)O)cc23)ccc1F")
98
>>> data_value("O=C(O)c1ccc2c(n1)[C@]1(CC[C@H](Oc3ccc(F)cc3F)CC1)C(=O)N2")
75
>>> data_value("Cc1ccc(C#N)c(O[C@H]2CC[C@]3(CC2)C(=O)Nc2ccc(C(=O)O)cc23)n1")
95
>>> data_value("N#Cc1ccc(O[C@H]2CC[C@@]3(CC2)C(=O)Nc2ccc(C(=O)O)cc23)c(Cl)c1")
99
>>> data_value("COc1ccc(O[C@H]2CC[C@@]3(CC2)C(=O)Nc2ccc(C(=O)O)cc23)cc1")
100
>>> data_value("Cc1ccc(O[C@H]2CC[C@@]3(CC2)C(=O)Nc2ccc(C(=O)O)cc23)cc1")
98
>>> data_value("Cc1cc(C)cc(O[C@H]2CC[C@@]3(CC2)C(=O)Nc2ccc(C(=O)O)cc23)c1")
86

====

- measured.target: human IP6K1 (Homo sapiens, UniProt Q92551)
- Construct: human IP6K1 (1-441) gene; GST; made in house; host or cells: Sf-9 insect cells
- assay.explanation: IP6K enzyme inhibitory assay (ADP-Glo Kinase Assay), human IP6K1
- Format: biochemical
- run.conditions: compound concentration 0.1 μM; read-out: ADP-Glo method inhibitory rate (%) human IP6K1
- Procedure: IP6K Enzyme Inhibitory Assay Human IP6K3 enzyme was prepared by transducing human IP6K3 (1-410) gene into BL21 (DE3) Escherichia coli and purifying by Ni-NTA (nickel-nitrilotriacetic acid) affinity column. […] The IP6K enzyme inhibitory activity of the test compound was measured by the following experiment method and using ADP-Glo™ Kinase Assay (manufactured by Promega). […] After the reaction, the luminescence intensity was measured by a plate reader Envision (manufactured by PerkinElmer).
endpoint: inhibition at 0.1 µM (%)

1 = O=C(O)c1ccc2c(c1)[C@]1(CC[C@@H](Oc3ccc(Cl)cc3F)CC1)C(=O)N2
2 = N#Cc1c(F)cccc1O[C@H]1CC[C@@]2(CC1)C(=O)Nc1ccc(C(=O)O)cc12
# argmax over inhibition at 0.1 µM for candidates 1 and 2 API: response body contains the label of the selected item.
1
(1: 99%, 2: 69%)

Where do the numbers come from? From patent US10968178B2.
